- assay info: self-splicing fitness, log relative to wild type (ln ratio); higher = more splicing; Tetrahymena group I intron in knt gene, E. coli kanamycin selection, DiMSum; sequences stand for … in CUCUCU…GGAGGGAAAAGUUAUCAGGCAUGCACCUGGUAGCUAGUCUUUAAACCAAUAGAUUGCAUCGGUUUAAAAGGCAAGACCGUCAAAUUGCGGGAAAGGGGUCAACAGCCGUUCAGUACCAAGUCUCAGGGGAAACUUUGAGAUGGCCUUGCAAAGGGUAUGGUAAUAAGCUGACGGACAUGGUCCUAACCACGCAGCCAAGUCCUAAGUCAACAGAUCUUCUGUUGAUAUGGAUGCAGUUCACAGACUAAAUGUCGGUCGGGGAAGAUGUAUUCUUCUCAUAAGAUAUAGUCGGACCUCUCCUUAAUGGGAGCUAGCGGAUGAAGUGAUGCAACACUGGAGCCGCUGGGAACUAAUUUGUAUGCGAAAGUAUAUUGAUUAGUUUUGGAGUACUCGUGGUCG;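 also: selection with 25 µg/mL kanamycin versus none on LB agar overnight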
- condition label: 30 °C
Use -2 as the dividing line for self-splicing fitness (ln), with the line itself on the YES side and lower values as NO.

Is the recorded value of self-splicing fitness (ln) equal to or greater than -2 for this sequence? UAAUAGCAAUAUUACGAGUG YES

Proceed to UUCAAGCAAUAUUACGUUAC NO

Would you mind doing ACAUAGCAAUAUUACGGGUA as well? NO

What do you have for AUAGAGCAAUAUUACGGCUU ? YES

Same again, this time with CGUAAGCAAUAUUACGUUGG YES

Field entry: UUUAAGCAAUAUUACGCGGA YES

Same thing, different sequence: GCUAAGCAAUAUUACGAACG YES

Again, but for CAUUAGCAAUAUUACGUGAG YES

And for UCUGAGCAAUAUUACGACAU ? NO

Would you mind doing UGAUAGCAAUAUUACGUGGG as well? NO

Next:
Threshold query (self-splicing fitness (ln) >= -2) on AUCAAGCAAUAUUACGUCUA YES

Now consider UCUCAGCAAUAUUACGUAAA . YES

Let us now turn to UGAUAGCAAUAUUACGAGUC NO

UCUCAGCAAUAUUACGGCUG , same question. NO

Now give it for CCUUAGCAAUAUUACGAGCC too. NO

---

- assay info: self-splicing fitness, log relative to wild type (ln ratio); higher = more splicing; Tetrahymena group I intron in knt gene, E. coli kanamycin selection, DiMSum; sequences stand for … in CUCUCU…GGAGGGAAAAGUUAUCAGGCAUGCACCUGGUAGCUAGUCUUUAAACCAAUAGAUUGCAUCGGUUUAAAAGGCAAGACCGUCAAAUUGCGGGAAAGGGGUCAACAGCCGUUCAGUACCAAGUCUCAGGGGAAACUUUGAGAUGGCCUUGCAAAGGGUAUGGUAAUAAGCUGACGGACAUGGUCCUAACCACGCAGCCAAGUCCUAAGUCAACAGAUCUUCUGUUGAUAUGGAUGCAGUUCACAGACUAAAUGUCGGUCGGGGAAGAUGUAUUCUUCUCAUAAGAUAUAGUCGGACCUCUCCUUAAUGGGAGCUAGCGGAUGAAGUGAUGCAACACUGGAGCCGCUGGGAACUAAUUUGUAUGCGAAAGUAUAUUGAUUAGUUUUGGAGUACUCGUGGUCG
- condition label: 37 °C
metric: self-splicing fitness (ln)
Reply with the value as a number alone.

Please give the measured self-splicing fitness (ln) for this sequence: ACGUAGCAAUAUUACGGCCU 0.149

Please do the same for CUAUAGCAAUAUUACGGAUG as well. -0.343

Can you handle AUCAAGCAAUAUUACGUUUA next? -1.31

Continuing:
What does the record list as self-splicing fitness (ln) for GUAGAGCAAUAUUACGGUAC ? 0.127

Another sequence to look at: UGUAAGCAAUAUUACGCGGU -2.15

Same again, this time with CUUAAGCAAUAUUACGUAAG -1.27

Sourced from the supplement of paper PMC7877785
